- System: Escherichia coli (ATCC 25922)
- Assay Summary: Growth in liquid media in presence of test compound
- Type: cell-based
- Condition Notes: 5 mg/L
Parameter: Growth in the presence of test compound, E. coli

# Molecule, Value Reported
measured = [
    ("CC1(C)C2CC3OB([C@H](CCc4ccccc4)CNC(=O)[C@@H](N)CCCCN)O[C@]3(C)C1C2 (some centres unmarked)", "+"),
    ("CC(B1OC2CC3CC(C3(C)C)C2(C)O1)C(Cc1ccccc1)NC(=O)C(N)CCCCN (centres unmarked)", "+"),
    ("CC1(C)C2CC3OB(CC(Cc4ccccc4)NC(=O)C(N)CCCNC(=N)N)OC3(C)C1C2 (centres unmarked)", "+"),
    ("CC1(C)C2CC3OB([C@@H](CNC(=O)[C@H](N)CCCCN)Cc4ccccc4)O[C@]3(C)C1C2 (some centres unmarked)", "+"),
    ("Cl.N[C@@H](Cc1ccccc1)C(=O)NC[C@@H](Cc1ccc(F)cc1)B(O)O", "+"),
    ("NCCCC[C@H](N)C(=O)NC[C@@H](Cc1ccccc1)B(O)O", "+"),
    ("CC1(C)C2CC3OB(C(CNC(=O)C(N)CCCCN)Cc4ccc(OC(F)(F)F)cc4)OC3(C)C1C2.Cl.Cl (centres unmarked) [Compound 53]", "+"),
    ("Cl.Cl.NCCCC[C@H](N)C(=O)NC[C@@H](Cc1ccc(OC(F)(F)F)cc1)B(O)O", "+"),
]
